Here the recorded composite z-score is given for each entry.
- measurementDescription: small molecules captured by biotinylated probe aFSTL3 – biochemical, small-molecule microarray, fluorescence 635/667, stem cell growth factor project, primary screen (AID 1064);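 note: measures binding of the biotinylated anti-FSTL3 antibody to printed compounds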
- details: higher = more signal
Quick one: just the number, no unit, thanks!

[[record]]
compound = "O=C(CS)NCCCCCCNC(=O)[C@H]1C[C@H]2C(=O)N3CCC[C@H]3C(=O)N2[C@H]1c1ccc(O)cc1"
measurementkind = "composite z-score"
reportedmeasurement = 0.112

[[record]]
compound = "COC(=O)[C@@]1(Cc2ccccc2)[C@H]2c3cc(C(=O)N(C)C)n(Cc4cc(F)c(F)c(F)c4)c3C[C@H]2CN1C(=O)c1ccccc1"
measurementkind = "composite z-score"
reportedmeasurement = 0.683


Determine from records and report composite z-score for "COCCOC(=O)N1C(=O)[C@@]2(c3cc(C#CCC(C(=O)OC)C(=O)OC)ccc31)[C@H](c1ccccc1OCCO)N1[C@H](c3ccccc3)[C@H](c3ccccc3)OC(=O)[C@H]1[C@@H]2C(=O)Nc1nc2ccccc2s1" -0.144

Determine from records and report composite z-score for "C=C(C(=O)CC[C@@H](OC(=O)c1cccnc1)c1ccc(CO)o1)C(C)C" -0.35

Determine from records and report composite z-score for CCN(CC)c1ccc(N2CC=CC34O[C@@H]5C=CCOC(=O)[C@@H]5[C@H]3C(=O)N(CCCCCO)[C@@H]4C2=O)cc1 (some centres not stated) 0.594

Determine from records and report composite z-score for "CN(C)CCCCCCNC(=O)[C@@H]1C[C@@H]2C(=O)N[C@@H](Cc3ccccc3)C(=O)N2[C@@H]1c1cccc(OCCO)c1" 0.0797

Determine from records and report composite z-score for O=C1C2C=CC(C(O)CCc3ccccc3)N(Nc3ccccc3)C2C(=O)N1c1ccccc1 (configuration not stated) 0.572

###

- Test system: Noggin (protein binding on small-molecule microarray)
- measurementDescription: small molecules binding Noggin protein – biochemical, 635/667 nm fluorescence, primary screen (AID 1095);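 note: score merges 667 nm feature fluorescence with signal to noise over triplicate slides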
- details: 635 nm fluorescence, higher = more signal
Output: class label from composite z-score. Mapping: 0 (below -0.3), 1 (-0.3 to below 0.9), 2 (0.9 or more)

// known answers, use as guide
[[record]]
compound = "C=C(C(=O)CC[C@H](OC(=O)c1cccnc1)c1ccccc1OCCO)C(C)C"
answerlabel = 2

[[record]]
compound = "CC1(C)C(=O)C(c2ccccc2)=C2CN3C(=O)N(CCc4ccccc4)C(=O)C3(Cc3ccccc3)C=C21 (stereo not given)"
answerlabel = 1

[[record]]
compound = "COCCOC(=O)N1C(=O)[C@@]2(c3cc(C#CCC(C(=O)OC)C(=O)OC)ccc31)[C@H](c1ccc(OCCO)cc1)N1[C@H](c3ccccc3)[C@H](c3ccccc3)OC(=O)[C@H]1[C@@H]2C(=O)NC[C@H](O)c1ccccc1"
answerlabel = 2


Exercise: read the entry "C=C(COC)C(=O)CC[C@@H](OC(=O)c1ccccc1-c1ccccc1C(=O)O)c1ccc(CO)o1" and state which class it falls under. 2

Exercise: read the entry O=C1C2C=CC(C(O)c3cccc4ccccc34)N(n3cnnc3)C2C(=O)N1Cc1ccccc1 (stereo not given) and state which class it falls under. 1

Exercise: read the entry C=CCC(OC(C)=O)[C@@H]1[C@@H](N(Cc2ccc(-c3cccc(C(F)(F)F)c3)o2)C(=O)c2ccc(C)cc2)c2cc(OCCCO)ccc2N1C(=O)c1ccc2ccccc2n1 (stereo not given in full) and state which class it falls under. 1

Exercise: read the entry CCCCN1CC=CC23O[C@@H]4C=CCCOC(=O)C4[C@H]2C(=O)N(CCCO)[C@@H]3C1=O (stereo not given in full) and state which class it falls under. 1

Exercise: read the entry "Cc1ccc(S[C@]2(C(=O)NCC(C)C)CC(=O)N(Cc3ccccc3)[C@@H]2c2ccc(CO)cc2)cc1" and state which class it falls under. 0

Exercise: read the entry "CN(C)CCCN1C(=O)[C@@]2(c3ccc([N+](=O)[O-])cc3)CC(=O)N(C3CCCCC3)[C@@H]2c2ccc(CO)cc21" and state which class it falls under. 1
